Quick reference for self-cleavage among some variants
B1: Hairpin Ribozyme (parent)
chain: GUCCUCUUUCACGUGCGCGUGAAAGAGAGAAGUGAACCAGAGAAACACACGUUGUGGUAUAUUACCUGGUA

# Variants of: B1
# experimental-protocol: self-cleavage, relative activity (ratio to wild type); higher = more cleavage; co-transcriptional
The reply should be a number, written without any unit.

QUERY: Any idea what its self-cleavage is? The variant is G42C G54U
RESULT: 0.17

QUERY: Any idea what its self-cleavage is? The variant is U2C G15U
RESULT: 0.117

QUERY: Any idea what its self-cleavage is? The variant is U8C G29U
RESULT: 0.081

QUERY: Any idea what its self-cleavage is? The variant is U8C A64G
RESULT: 0.443

---
QUERY: Any idea what its self-cleavage is? The variant is U33A A35G
RESULT: 0.17

QUERY: Any idea what its self-cleavage is? The variant is U9A A35C
RESULT: 0.69

QUERY: Any idea what its self-cleavage is? The variant is U14C A44U
RESULT: 0.0783

QUERY: Any idea what its self-cleavage is? The variant is G54A A59G
RESULT: 0.17

QUERY: Any idea what its self-cleavage is? The variant is C12G A28U
RESULT: 0.57

QUERY: Any idea what its self-cleavage is? The variant is `G15C`
RESULT: 1.03

QUERY: Any idea what its self-cleavage is? The variant is U9G U53C
RESULT: 0.736
